Target: Imipenem-hydrolyzing beta-lactamase (Enterobacter cloacae)
Sequence (P52663 whole entry): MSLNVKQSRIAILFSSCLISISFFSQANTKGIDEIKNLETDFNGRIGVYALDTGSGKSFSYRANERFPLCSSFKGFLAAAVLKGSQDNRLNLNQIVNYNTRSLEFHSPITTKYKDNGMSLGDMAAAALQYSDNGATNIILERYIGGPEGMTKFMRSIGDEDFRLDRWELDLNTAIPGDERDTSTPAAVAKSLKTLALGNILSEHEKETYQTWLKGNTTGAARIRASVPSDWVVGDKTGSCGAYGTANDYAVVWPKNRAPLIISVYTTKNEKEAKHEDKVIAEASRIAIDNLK
Assay: Inhibition of Enterobacter cloacae Imi1
Endpoint: log10 of IC50 (log10 of the value in µM)

>>> print(df.to_string())
                                test_smiles  assay_value
0  O=C([O-])C1=CS[C@@H]2/C(=C/c3cn4c(n3)COCC4)C(=O)N12.[Na+]        -2.10
1  O=C([O-])C1=CS[C@@H]2/C(=C\c3cc4c(s3)CCN(Cc3cccnc3)C4)C(=O)N12.[Na+]        -1.40
2  O=C([O-])C1=CS[C@@H]2/C(=C\c3cc4n(n3)CCOC4)C(=O)N12.[Na+]        -1.70
3  O=C([O-])C1=CS[C@@H]2/C(=C\c3cc4n(n3)CCCO4)C(=O)N12.[Na+]        -0.38
4  CN1CCn2cc(/C=C3/C(=O)N4C(C(=O)[O-])=CS[C@H]34)nc2C1.[Na+]        -1.66
